Tested on: SF-268 CNS
Assay: NCI-60 one-dose screen, 48 h (100 = growth as untreated, 0 = no growth, -100 = all killed)
Details: 10 µM unless noted
The panel holds about 83,000 compounds, 20% with a hit somewhere; the sample as a whole holds those more often.
Measure Name: growth (%)
Return type: number; implicit unit %.

Examples with answers:
COc1ccc(-c2nc3ncccn3c2-c2nc3ccc(Br)cc3[nH]2)cc1: 99.6
O=C(O)c1cccc2c1-c1ccc(Cl)cc1C2: 107
COc1cnc2c(c1)C(=O)c1c-2n(CCCNC(C)C)c(=O)c2cc([N+](=O)[O-])ccc12: -61.2
CC(C)=CCC/C(C)=C/CC/C(C)=C/CC/C(C)=C/CSC[C@H](NC(=O)CCCCCN1CCN(C)CC1)C(=O)NC1CCCCC1: 84.8
C=C(C)[C@@H]1CC[C@]2(C(=O)N3CCN(C)CC3)CC[C@]3(C)[C@H](CC[C@@H]4[C@@]5(C)C/C(=C/c6ccc(C(F)(F)F)cc6)C(=O)C(C)(C)[C@@H]5CC[C@]43C)[C@@H]12: 92.8
CC(c1ccccc1)N1C(=O)C(C2SC(=S)N(C(C)c3ccccc3)C2=O)SC1=S (stereo unspecified): 92.2

For the compound "C=C1C(=O)O[C@H]2[C@H]1CC/C(Cn1cc(-c3ccc(OC)cc3)nn1)=C\CC[C@@]1(C)O[C@@H]21" , what growth is on record?
12.7

For the compound "COC(=O)[C@]12CC[C@@H](C)[C@H](C)[C@@H]1C1=CC[C@@H]3[C@@]4(C)CC(=O)[C@H](OC(=O)c5ccco5)[C@@]5(C)COC(=C45)C[C@@]3(C)[C@]1(C)CC2" , what growth is on record?
40.7

For the compound "COc1cc(-c2cc3ncccc3c3nc(OCCN(C)C)c4cccnc4c23)cc(OC)c1OC" , what growth is on record?
23.1

For the compound "COc1ccc(-c2cc(-c3c(C)oc4cc5occc5c(OC)c4c3=O)nc(N)c2C#N)cc1OC" , what growth is on record?
65.1

For the compound "CC(=O)c1c(C)[nH]c(-c2nc3ccc(N4CCN(C)CC4)cc3[nH]2)c1-c1ccc(N(C)C)cc1" , what growth is on record?
59.4

---

Test system: NCI-H226 lung
Assay: NCI-60 one-dose screen, 48 h (100 = growth as untreated, 0 = no growth, -100 = all killed)
Conditions: 10 µM unless noted
Compounds without any hit were thinned out: in the full panel of roughly 83,000, 20% have a hit. The source made the active and inactive calls. Rule for the calls: active = growth percent below 10; inactive = the rest.
Measure Name: growth

Examples with answers:
[B-][N+](CC)(CC)c1ccccc1: 106% (inactive)
NC1=C(C/C(N)=N\O)C(c2ccccc2Cl)c2c(ccc3ccccc23)O1 (stereo unspecified): 89.4% (inactive)
Nc1ccccc1NC(=O)c1ccc(CN2CCC/C(=C\c3ccccn3)C2=O)cc1: 52.8% (inactive)
CC(=O)NC1=C(C#N)C(c2ccccc2Cl)c2c(ccc3ccccc23)O1 (stereo unspecified): 83.5% (inactive)
Fc1ccc2[nH]cc(-c3nc(-c4c[nH]c5ncccc45)cs3)c2c1: 47.4% (inactive)

For the compound "Cn1cc(-c2csc(-c3c[nH]c4ccccc34)n2)c2cccnc21" , what growth is on record?
60.3% (inactive)

For the compound "O=C1CNCCN1" , what growth is on record?
97.1% (inactive)

For the compound "COc1cc(-c2cc3cc(O)ccc3oc2=O)cc(OC)c1OC" , what growth is on record?
89.2% (inactive)

For the compound "O=C(/C=C\c1ccc2c(c1)OCO2)/C=C/c1ccc2c(c1)OCO2" , what growth is on record?
67.7% (inactive)

For the compound "Cn1cc(-c2nc(-c3c[nH]c4ncccc34)cs2)c2cc(Br)ccc21" , what growth is on record?
95.7% (inactive)

For the compound "O=c1c2sc3ncc(Br)cc3c2ncn1-c1cccc(Cl)c1" , what growth is on record?
87.3% (inactive)
